Test system: U2OS
experimental_details: Incucyte cell viability with U2OS; also: filed as whole numbers so only -1 and 0 and 1 occur
Format: toxicity, cell-based
cond: human, 24 h, 10 µM, compound concentration 10 uM, replicate number 2, timepoint 24 hours
Growth Rate overview
Form rule: numeric answer, no unit written next to it.

Some compounds with recorded Growth Rate:
# compound, tested_system, recorded_endpoint, reported_result
measured = [
    ("N#CC1(c2ccccn2)CCN(Cc2cc(C(=O)N3CCCC3)c(=O)n3ccccc23)CC1 [MSD-M1PAM-NC]", "U2OS", "Growth Rate", 1),
    ("NS(=O)(=O)c1cc(NC(=O)C2(c3ccccc3Cl)CC2)ccc1Oc1cccc(Cl)c1 [BAY-207]", "U2OS", "Growth Rate", 0),
    ("CN(C)C(=O)Cn1cc(-c2nc(C3(c4ccc(-c5cnc(N)nc5)cc4)CC3)no2)cn1 [BI 0153]", "U2OS", "Growth Rate", 1),
    ("CCCCc1nc2ccc(NC(=O)NC3CCCCC3)cc2n1Cc1ccc(-c2ccccc2C(=O)O)cc1", "U2OS", "Growth Rate", 1),
    ("C[C@H](CO)Nc1nc(SCc2cccc(Cl)c2F)nc2[nH]c(=O)sc12", "U2OS", "Growth Rate", 0),
]

Form: compound = CCCCN(CCCC)C(=O)CN1C[C@@H](c2cc(OC)c3c(c2)OCO3)[C@H](C(=O)O)[C@H]1CC(C)(C)CCC.Cl ; Growth Rate = 1

Form: compound = CO[C@H]1/C=C/O[C@@]2(C)Oc3c(C)c(O)c4c(O)c(c(/C=N/N5CCN(C)CC5)c(O)c4c3C2=O)NC(=O)/C(C)=C\C=C\[C@H](C)[C@H](O)[C@@H](C)[C@@H](O)[C@@H](C)[C@H](OC(C)=O)[C@@H]1C [RIFAMPIN] ; Growth Rate = 1

Form: compound = CN(CCOc1ccc(C[C@H](Nc2ccccc2C(=O)c2ccccc2)C(=O)O)cc1)c1ccccn1.O ; Growth Rate = 0

Form: compound = COc1ccc(COc2ccc(Cc3cnc(N)nc3N)cc2OC)cc1 [GW632580X] ; Growth Rate = 0

Form: compound = Cc1cccc(NC(=O)N[C@@H]2N=C(c3ccccc3)c3ccccc3N(C)C2=O)c1 [L-365260] ; Growth Rate = 1

Form: compound = COc1ccc(/C=C/CCCCOc2ccc(C(=O)c3cccc(C(=O)O)c3)cc2CCC(=O)O)cc1 ; Growth Rate = 0

Form: compound = N#Cc1c(N)nc(SCC(N)=O)c(C#N)c1-c1ccc(OCC2CC2)cc1 ; Growth Rate = 0

Form: compound = CCCOc1ccc([C@@H]2[C@@H](C(=O)O)[C@H](c3ccc4c(c3)OCO4)CN2CC(=O)Nc2c(CC)cccc2CC)cc1 [A-1806262] ; Growth Rate = 0

Form: compound = c1ccc2oc(-c3csc(C4CCN(Cc5nc6ncccc6[nH]5)CC4)n3)cc2c1 ; Growth Rate = 0

Form: compound = Cc1cc(C)cc(C(=O)N(C)[C@H](Cc2ccc(-c3ccccc3)cc2)C(=O)N[C@@H](Cc2c[nH]c3ccccc23)C(=O)O)c1 ; Growth Rate = 1

Form: compound = CCc1cc2c(c(CC)n1)CCC(=O)N2Cc1ccc(-c2ccccc2-c2nnn[nH]2)cc1.Cl ; Growth Rate = 1

* * *

Population Mitotic Cells (%) overview
System: HEK-293T
experimental_details: Multiplex assay against HEK293T
Format: toxicity, cell-based
cond: human, 24 h, 10 µM, compound concentration 10 uM, replicate 2
Report only the number, with the unit % understood.

Some compounds with recorded Population Mitotic Cells (%):
# compound, tested_system, value_unit, Population Mitotic Cells (%)
records = [
    ("CC(C)N1CCC(C)(C)c2cc(C#Cc3ccc(C(=O)O)cc3)ccc21", "HEK-293T", "%", 100),
    ("CC(C)(C)c1cnc(CSc2cnc(NC(=O)C3CCNCC3)s2)o1", "HEK-293T", "%", 68),
    ("CN(C)C/C=C/C(=O)Nc1cc2c(Nc3ccc(F)c(Cl)c3)ncnc2cc1O[C@H]1CCOC1.O=C(O)/C=C\\C(=O)O.O=C(O)/C=C\\C(=O)O [AFATINIB DIMALEATE]", "HEK-293T", "%", 74),
]

For N#Cc1cnc(Nc2cc(NC[C@H]3CNCCO3)c(C(F)(F)F)cn2)cn1 on HEK-293T, measured Population Mitotic Cells (%) was 78

For Cl.Cl.NC1(c2ccc(-c3nc4ccn5c(=O)[nH]nc5c4cc3-c3ccccc3)cc2)CCC1 on HEK-293T, measured Population Mitotic Cells (%) was 88

* * *

Population Pyknosed Nuclei (%) overview
Test system: Fibroblast
experimental_details: Multiplex assay against human fibroblast
Type: toxicity, cell-based
cond: 48 h, 1 µM, compound concentration 1 uM, replicate 1
Report only the number, with the unit % understood.

Some compounds with recorded Population Pyknosed Nuclei (%):
# compound, reported_result
rows = [
    ("COc1ccc(NS(=O)(=O)c2sc3ccc(Cl)cc3c2C)cc1N1CCNCC1.Cl", 14),
    ("CCC(=O)O[C@]1(C(=O)SCF)[C@H](C)C[C@H]2[C@@H]3C[C@H](F)C4=CC(=O)C=C[C@]4(C)[C@@]3(F)[C@@H](O)C[C@@]21C [FLUTICASONE PROPIONATE]", 15),
    ("O=C(O)c1ccc2cc(-c3ccc(O)c(C45CC6CC(CC(C6)C4)C5)c3)ccc2c1 [O-DEMETHYLATED ADAPALENE]", 12),
    ("Nc1ccc(C(=O)Nc2cccc(-c3nc(N4CCOCC4)c4oc5ncccc5c4n3)c2)cn1", 7),
]

Form: compound = Cl.Cl.Nc1ncnc2c1c(-c1cccc(OCc3ccccc3)c1)cn2[C@H]1C[C@@H](CN2CCC2)C1 ; Population Pyknosed Nuclei (%) = 6

Form: compound = CNc1oc(-c2cccc3ccccc23)nc1C#N ; Population Pyknosed Nuclei (%) = 5

Form: compound = COc1cc2c(NC3CCN(C(C)C)CC3)nc(N3CCC(F)(F)CC3)nc2cc1OCCCN1CCCC1 ; Population Pyknosed Nuclei (%) = 12

Form: compound = CCn1c(-c2nonc2N)nc2cnc(Oc3cccc(NC(=O)c4ccc(OCCN5CCOCC5)cc4)c3)cc21 [GSK-269962A] ; Population Pyknosed Nuclei (%) = 13

* * *

Test system: Fibroblast
experimental_details: Multiplex assay against human fibroblast
Assay type: toxicity, cell-based
cond: 12 h, 10 µM, compound concentration 10 uM, replicate 1
recorded_endpoint: Population Fragmented Nuclei (%)
Report only the number, with the unit % understood.

Some compounds with recorded Population Fragmented Nuclei (%):
# compound, recorded_endpoint, value_unit, reported_result
data = [
    ("CCc1cc2c(cc1CC)CC(NC[C@H](O)c1ccc(O)c3[nH]c(=O)ccc13)C2", "Population Fragmented Nuclei (%)", "%", 35),
    ("Cl.Cl.Nc1ncnc2c1c(-c1cccc(OCc3ccccc3)c1)cn2[C@H]1C[C@@H](CN2CCC2)C1", "Population Fragmented Nuclei (%)", "%", 24),
    ("COc1cc2c(NC3CCN(C(C)C)CC3)nc(N3CCC(F)(F)CC3)nc2cc1OCCCN1CCCC1", "Population Fragmented Nuclei (%)", "%", 16),
    ("Nc1ccc(C(=O)Nc2cccc(-c3nc(N4CCOCC4)c4oc5ncccc5c4n3)c2)cn1", "Population Fragmented Nuclei (%)", "%", 57),
    ("CC(C)N1CCC(C)(C)c2cc(C#Cc3ccc(C(=O)O)cc3)ccc21", "Population Fragmented Nuclei (%)", "%", 89),
    ("Cc1nc(Cc2cccc(C(F)(F)F)c2)sc1-c1ccc(C(N)=O)nc1 [TP-024n]", "Population Fragmented Nuclei (%)", "%", 25),
    ("CCn1c(-c2nonc2N)nc2cnc(Oc3cccc(NC(=O)c4ccc(OCCN5CCOCC5)cc4)c3)cc21 [GSK-269962A]", "Population Fragmented Nuclei (%)", "%", 40),
    ("CN(C)C/C=C/C(=O)Nc1cc2c(Nc3ccc(F)c(Cl)c3)ncnc2cc1O[C@H]1CCOC1.O=C(O)/C=C\\C(=O)O.O=C(O)/C=C\\C(=O)O [AFATINIB DIMALEATE]", "Population Fragmented Nuclei (%)", "%", 27),
]

Form: compound = CCOc1cc2ncc(C#N)c(Nc3ccc(OCc4cccc(F)c4)c(Cl)c3)c2cc1NC(=O)/C=C/CN(C)C ; Population Fragmented Nuclei (%) = 42

Form: compound = CCOc1cc(N2CCC(O)CC2)ccc1Nc1ncc2c(n1)N(C1CCCC1)CCC(=O)N2C ; Population Fragmented Nuclei (%) = 23

* * *

System: Fibroblast
experimental_details: Multiplex assay against human fibroblast
Type: toxicity, cell-based
cond: 24 h, 10 µM, compound concentration 10 uM, replicate 2
Entry flag: true (1) if Population Healthy Nuclei (%) reaches 50%; false (0) if it does not.

Worked examples follow.
# compound, answer_label
rows = [
    ("CN(C)C/C=C/C(=O)Nc1cc2c(Nc3ccc(F)c(Cl)c3)ncnc2cc1O[C@H]1CCOC1.O=C(O)/C=C\\C(=O)O.O=C(O)/C=C\\C(=O)O [AFATINIB DIMALEATE]", "false (0)"),
    ("Nc1nc2c(c(N3CCNCC3)n1)CCC1=C2[C@@H]2CCCC[C@@H]2O1", "false (0)"),
    ("CCn1c(-c2nonc2N)nc2cnc(Oc3cccc(NC(=O)c4ccc(OCCN5CCOCC5)cc4)c3)cc21 [GSK-269962A]", "true (1)"),
]

Could you tell me if the measured Population Healthy Nuclei (%) of CC(C)(C)c1cnc(CSc2cnc(NC(=O)C3CCNCC3)s2)o1 reaches 50% or more? false (0)

Could you tell me if the measured Population Healthy Nuclei (%) of CC(=O)c1cc(-c2cc(C(=O)NC3CC3)ccc2C)c2ncccn12 reaches 50% or more? true (1)

Could you tell me if the measured Population Healthy Nuclei (%) of CCC(=O)O[C@]1(C(=O)SCF)[C@H](C)C[C@H]2[C@@H]3C[C@H](F)C4=CC(=O)C=C[C@]4(C)[C@@]3(F)[C@@H](O)C[C@@]21C [FLUTICASONE PROPIONATE] reaches 50% or more? true (1)

Could you tell me if the measured Population Healthy Nuclei (%) of Cc1cc2c(cc1N1C(=O)c3cccc4c(CCCO)ccc(c34)C1=O)n(C)c(=O)n2C reaches 50% or more? true (1)

Could you tell me if the measured Population Healthy Nuclei (%) of c1ccc2oc(-c3csc(C4CCN(Cc5nc6ncccc6[nH]5)CC4)n3)cc2c1 reaches 50% or more? false (0)

Could you tell me if the measured Population Healthy Nuclei (%) of CNc1oc(-c2cccc3ccccc23)nc1C#N reaches 50% or more? false (0)
